- Test system: Staphylococcus aureus H3
- ASSAY OVERVIEW: MIC / antibiotic susceptibility; also: key: R: strain resistant to antibiotic concerned; S: strain sensitive to antibiotic concerned; L strain with intermediate resistance to antibiotic concerned
- Type: cell-based

{"MOLECULE SMILES": "CC(=O)O[C@H]1C[C@@]2(C)[C@@H](C[C@@H](O)[C@H]3[C@@]4(C)CC[C@@H](O)[C@@H](C)[C@@H]4CC[C@@]32C)/C1=C(\\CCC=C(C)C)C(=O)O", "TARGET ENTITY": "Staphylococcus aureus H3", "Susceptibility of strain to antibiotic": "S"}
{"MOLECULE SMILES": "C[C@H]1c2cccc(O)c2C(O)=C2C(=O)[C@]3(O)C(O)=C(C(N)=O)C(=O)[C@@H](N(C)C)[C@@H]3[C@@H](O)[C@@H]21", "TARGET ENTITY": "Staphylococcus aureus H3", "Susceptibility of strain to antibiotic": "S"}
{"MOLECULE SMILES": "CC1(C)S[C@@H]2[C@H](NC(=O)Cc3ccccc3)C(=O)N2[C@H]1C(=O)O", "TARGET ENTITY": "Staphylococcus aureus H3", "Susceptibility of strain to antibiotic": "R"}
